Cited source: patent US12679836B2

target: Ba/F3-EGFR-E746_A750del cells (Homo sapiens, UniProt P00533, DEL746-750, cells depend on it); experiment: Ba/F3 cell survival assay, EGFR E746_A750del; assay type: cell-based; conditions: without IL-3, without EGF, 48 h; read-out: BA/F3 (EGFR E746_A750del) IC50
Sequence (P00533 with tags, fused parts or gaps DEL746-750): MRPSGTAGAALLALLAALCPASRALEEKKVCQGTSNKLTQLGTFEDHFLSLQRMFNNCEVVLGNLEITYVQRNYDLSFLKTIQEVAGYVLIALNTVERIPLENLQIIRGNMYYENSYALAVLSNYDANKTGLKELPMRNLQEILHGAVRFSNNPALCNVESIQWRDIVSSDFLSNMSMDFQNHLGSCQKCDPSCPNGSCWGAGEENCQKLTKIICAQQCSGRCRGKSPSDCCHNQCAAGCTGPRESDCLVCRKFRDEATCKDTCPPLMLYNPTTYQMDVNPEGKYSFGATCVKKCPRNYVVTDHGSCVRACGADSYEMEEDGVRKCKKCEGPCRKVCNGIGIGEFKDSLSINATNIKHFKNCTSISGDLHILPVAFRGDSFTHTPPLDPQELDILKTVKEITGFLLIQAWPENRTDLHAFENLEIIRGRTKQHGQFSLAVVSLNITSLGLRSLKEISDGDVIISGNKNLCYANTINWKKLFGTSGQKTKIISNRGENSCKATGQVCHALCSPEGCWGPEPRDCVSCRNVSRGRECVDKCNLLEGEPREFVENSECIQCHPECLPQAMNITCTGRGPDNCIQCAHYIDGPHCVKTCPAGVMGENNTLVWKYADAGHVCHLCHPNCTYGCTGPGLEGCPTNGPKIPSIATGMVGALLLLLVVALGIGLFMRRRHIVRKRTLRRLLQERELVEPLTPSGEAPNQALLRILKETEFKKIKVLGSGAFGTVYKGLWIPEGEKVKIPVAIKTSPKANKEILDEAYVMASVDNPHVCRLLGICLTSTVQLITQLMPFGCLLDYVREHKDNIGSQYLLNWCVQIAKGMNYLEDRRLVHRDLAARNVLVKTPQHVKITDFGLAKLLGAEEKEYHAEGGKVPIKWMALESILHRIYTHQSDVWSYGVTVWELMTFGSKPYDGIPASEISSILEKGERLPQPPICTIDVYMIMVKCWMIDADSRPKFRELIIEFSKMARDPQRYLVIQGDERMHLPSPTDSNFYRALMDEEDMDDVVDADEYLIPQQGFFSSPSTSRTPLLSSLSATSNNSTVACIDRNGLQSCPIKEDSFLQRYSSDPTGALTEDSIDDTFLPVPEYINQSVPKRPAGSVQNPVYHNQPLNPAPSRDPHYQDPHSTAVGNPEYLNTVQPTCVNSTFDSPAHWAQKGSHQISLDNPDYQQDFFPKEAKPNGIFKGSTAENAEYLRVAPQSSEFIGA
For each of the compounds below, state its log10(GI50).
Please keep in mind that the values are log10 of GI50 expressed in nM.

>>> print(df.to_string())
                                   compound  value_reported
0  COc1c(Cl)cccc1Nc1c(-c2ccncc2OC[C@@H]2COCCN2C)[nH]c2c1C(=O)NCC2 [Example 21]           -0.69
1  COc1c(Cl)cccc1Nc1c(-c2ccncc2OCC2COC(C)(C)CO2)[nH]c2c1C(=O)NCC2 (single isomer, unassigned) [Example 32]            0.46
2  COc1c(F)cccc1Nc1c(-c2ccncc2OCC2CN(C)CCO2)[nH]c2c1C(=O)NCC2 (single isomer, unassigned) [Example 14]            0.24
3  Cc1c(Cl)cccc1Nc1c(-c2ccncc2OC[C@H]2COCCO2)[nH]c2c1C(=O)NCC2 (single isomer, unassigned) [Example 50]            0.04

## Input Provide measured log10(GI50) value, entry: CCc1c(Cl)cccc1Nc1c(-c2ccncc2OCC2CN(C)CCO2)[nH]c2c1C(=O)NCC2 (stereo not drawn) [Example 29]
## Output -0.48

###

molecular target: Ba/F3-EGFR-WT cells (Homo sapiens, UniProt P00533); assay: Ba/F3 cell survival assay (Cell Titer-Glo), WT EGFR; assay type: cell-based; details: without IL-3, with 10 ng/mL EGF, 48 h; read-out: BA/F3 (wild type) IC50
Sequence (P00533 whole entry, change not shown): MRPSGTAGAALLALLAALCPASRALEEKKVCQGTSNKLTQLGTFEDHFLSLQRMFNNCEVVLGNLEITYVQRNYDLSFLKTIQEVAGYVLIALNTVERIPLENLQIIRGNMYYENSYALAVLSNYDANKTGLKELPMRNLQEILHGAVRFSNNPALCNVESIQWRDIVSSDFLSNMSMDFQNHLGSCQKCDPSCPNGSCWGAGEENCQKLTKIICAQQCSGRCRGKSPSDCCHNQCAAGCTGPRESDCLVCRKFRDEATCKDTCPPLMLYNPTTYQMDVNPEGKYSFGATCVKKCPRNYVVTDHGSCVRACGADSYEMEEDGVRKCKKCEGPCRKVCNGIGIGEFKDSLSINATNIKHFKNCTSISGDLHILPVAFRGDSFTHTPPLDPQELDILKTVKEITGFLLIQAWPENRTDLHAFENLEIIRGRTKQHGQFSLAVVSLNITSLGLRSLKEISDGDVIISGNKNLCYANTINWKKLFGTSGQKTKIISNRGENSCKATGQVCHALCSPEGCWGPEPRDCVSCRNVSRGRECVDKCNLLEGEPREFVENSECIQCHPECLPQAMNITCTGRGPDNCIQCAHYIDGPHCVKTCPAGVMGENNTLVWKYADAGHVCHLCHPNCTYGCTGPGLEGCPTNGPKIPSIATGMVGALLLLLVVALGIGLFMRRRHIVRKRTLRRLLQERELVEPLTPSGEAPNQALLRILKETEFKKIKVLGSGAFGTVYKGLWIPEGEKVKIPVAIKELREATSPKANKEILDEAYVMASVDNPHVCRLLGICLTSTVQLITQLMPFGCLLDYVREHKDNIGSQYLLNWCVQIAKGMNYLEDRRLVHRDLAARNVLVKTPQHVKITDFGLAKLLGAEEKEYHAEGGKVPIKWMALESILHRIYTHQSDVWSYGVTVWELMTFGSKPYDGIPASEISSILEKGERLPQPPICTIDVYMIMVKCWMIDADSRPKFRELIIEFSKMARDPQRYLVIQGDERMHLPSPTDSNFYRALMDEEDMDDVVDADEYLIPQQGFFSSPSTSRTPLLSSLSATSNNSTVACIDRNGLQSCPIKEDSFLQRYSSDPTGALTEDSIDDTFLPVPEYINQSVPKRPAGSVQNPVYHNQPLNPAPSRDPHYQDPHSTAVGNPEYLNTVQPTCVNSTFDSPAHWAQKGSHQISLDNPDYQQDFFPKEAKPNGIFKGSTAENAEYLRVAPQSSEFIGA
Each record is given met if its reported GI50 is strictly below 0.4 µM. Records at or above 0.4 µM are given not met.

Solved entries (count: 8):
                                   molecule  label_class
0  Cc1c(F)cccc1Nc1c(-c2ccncc2OCC2COC(C)(C)CO2)[nH]c2c1C(=O)NCC2 (stereo not drawn) [Example 38]      not met
1  COc1c(Cl)cccc1Nc1c(-c2ccncc2OC(C)C2CN(C)CCO2)[nH]c2c1C(=O)NCC2 (stereo not drawn) [Example 71]      not met
2  COc1c(Cl)cccc1Nc1c(-c2ccncc2O[C@@H](C)C2COCCO2)[nH]c2c1C(=O)NCC2 (single isomer, unassigned) [Example 59]          met
3  COc1c(Cl)cccc1Nc1c(-c2ccncc2OC[C@@H]2COCCO2)[nH]c2c1C(=O)NCC2 (single isomer, unassigned)          met
4  COc1c(F)cccc1Nc1c(-c2ccncc2OCC2COC(C)(C)CO2)[nH]c2c1C(=O)NCC2 (single isomer, unassigned) [Example 34]          met
5  O=C1NCCc2[nH]c(-c3ccncc3OCC3COCCO3)c(Nc3cccc(Cl)c3Cl)c21 (stereo not drawn) [Example 7]          met
6  COc1c(Cl)cccc1Nc1c(-c2ccncc2OCC2CN(C)CCO2)[nH]c2c1C(=O)NCC2 (single isomer, unassigned) [Example 17]          met
7  COc1c(Cl)cccc1Nc1c(-c2ccncc2OCC2CN(C)CCO2)[nH]c2c1C(=O)NCC2 (single isomer, unassigned) [Example 16]      not met

## Input GI50 under 0.4 µM? Item: Cc1c(Cl)cccc1Nc1c(-c2ccncc2OC[C@H]2COCCN2C)[nH]c2c1C(=O)NCC2
## Output not met

## Input GI50 under 0.4 µM? Item: COc1c(F)cccc1Nc1c(-c2ccncc2OCC2COCCO2)[nH]c2c1C(=O)NCC2 (stereo not drawn) [Example 4]
## Output not met

## Input GI50 under 0.4 µM? Item: COc1c(F)cccc1Nc1c(-c2ccncc2OC[C@@H]2COCCN2C)[nH]c2c1C(=O)NCC2
## Output met

###

For each of the molecules below, state its GI50.
target: Ba/F3-EGFR-H773_V774insNPH cells (Homo sapiens, UniProt P00533, DUP771-773, cells depend on it); experiment: Ba/F3 cell survival assay, EGFR H773_V774insNPH; assay type: cell-based; conditions: read-out: BA/F3 (EGFR 773_774insNPH) IC50 [mol/l]; without IL-3, without EGF, 48 h
Sequence (P00533 with tags, fused parts or gaps DUP771-773): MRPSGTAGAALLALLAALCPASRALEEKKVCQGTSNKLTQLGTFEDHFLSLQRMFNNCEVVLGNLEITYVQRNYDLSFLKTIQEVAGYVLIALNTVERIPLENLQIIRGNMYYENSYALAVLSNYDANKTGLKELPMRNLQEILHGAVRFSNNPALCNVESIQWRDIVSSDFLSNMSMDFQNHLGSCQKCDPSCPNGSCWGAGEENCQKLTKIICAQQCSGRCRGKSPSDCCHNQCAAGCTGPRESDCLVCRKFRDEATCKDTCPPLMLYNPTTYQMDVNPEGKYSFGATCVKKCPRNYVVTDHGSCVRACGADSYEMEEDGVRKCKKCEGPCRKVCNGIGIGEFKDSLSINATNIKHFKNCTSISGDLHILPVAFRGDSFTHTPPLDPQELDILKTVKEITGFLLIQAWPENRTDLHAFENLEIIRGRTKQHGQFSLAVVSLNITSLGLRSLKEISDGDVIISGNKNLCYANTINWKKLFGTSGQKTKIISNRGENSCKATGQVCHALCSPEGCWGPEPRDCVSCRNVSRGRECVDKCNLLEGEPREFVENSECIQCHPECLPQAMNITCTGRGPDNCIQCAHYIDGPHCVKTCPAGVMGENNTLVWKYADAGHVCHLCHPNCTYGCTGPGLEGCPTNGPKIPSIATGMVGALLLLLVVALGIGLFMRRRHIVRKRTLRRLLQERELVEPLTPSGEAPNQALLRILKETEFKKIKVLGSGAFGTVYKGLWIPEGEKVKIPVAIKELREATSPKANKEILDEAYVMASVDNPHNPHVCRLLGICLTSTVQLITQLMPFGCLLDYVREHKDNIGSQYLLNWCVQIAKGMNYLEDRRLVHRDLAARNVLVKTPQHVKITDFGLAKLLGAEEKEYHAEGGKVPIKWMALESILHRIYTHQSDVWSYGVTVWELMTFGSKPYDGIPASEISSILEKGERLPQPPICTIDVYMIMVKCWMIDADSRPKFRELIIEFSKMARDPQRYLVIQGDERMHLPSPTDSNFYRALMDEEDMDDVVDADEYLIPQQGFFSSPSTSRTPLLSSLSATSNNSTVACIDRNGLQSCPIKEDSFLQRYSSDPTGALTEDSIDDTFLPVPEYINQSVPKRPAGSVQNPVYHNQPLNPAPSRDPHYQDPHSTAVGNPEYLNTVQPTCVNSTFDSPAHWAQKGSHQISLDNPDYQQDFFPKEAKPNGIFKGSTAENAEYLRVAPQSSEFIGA
Number first, unit second: that is the form wanted.

Consider the worked cases shown below.
>>> df
                                   molecule  observation_type  value_reported
0  Cc1c(F)cccc1Nc1c(-c2ccncc2OCC2COCCO2)[nH]c2c1C(=O)NCC2 (single isomer, unassigned) [Example 48]              GI50        0.142 µM
1  O=C1NCCc2[nH]c(-c3ccncc3OCC3COCCO3)c(Nc3cccc(Cl)c3Cl)c21 (single isomer, unassigned) [Example 8]              GI50       0.0231 µM
2  COc1c(F)cccc1Nc1c(-c2ccncc2OC[C@@H]2COCCN2C)[nH]c2c1C(=O)NCC2 [Example 20]              GI50       0.0567 µM
3  Cc1c(Cl)cccc1Nc1c(-c2ccncc2OCC2COC(C)(C)CO2)[nH]c2c1C(=O)NCC2 (single isomer, unassigned) [Example 46]              GI50       0.0389 µM

Now, please, on to the next molecule.
## Input Provide measured GI50 value, entry: COc1c(Cl)cccc1Nc1c(-c2ccncc2OC[C@@H]2COCCO2)[nH]c2c1C(=O)NCC2 (single isomer, unassigned) [Example 2]
## Output 0.0282 µM

###

biological target: Ba/F3-EGFR-insSVD cells (Homo sapiens, UniProt P00533, DUP768-770, cells depend on it); test: Ba/F3 cell survival assay (Cell Titer-Glo), EGFR-insSVD; format: cell-based; details: without IL-3, with 10 ng/mL EGF, 48 h; read-out: BA/F3 (insSVD) IC50
Sequence (P00533 with tags, fused parts or gaps DUP768-770): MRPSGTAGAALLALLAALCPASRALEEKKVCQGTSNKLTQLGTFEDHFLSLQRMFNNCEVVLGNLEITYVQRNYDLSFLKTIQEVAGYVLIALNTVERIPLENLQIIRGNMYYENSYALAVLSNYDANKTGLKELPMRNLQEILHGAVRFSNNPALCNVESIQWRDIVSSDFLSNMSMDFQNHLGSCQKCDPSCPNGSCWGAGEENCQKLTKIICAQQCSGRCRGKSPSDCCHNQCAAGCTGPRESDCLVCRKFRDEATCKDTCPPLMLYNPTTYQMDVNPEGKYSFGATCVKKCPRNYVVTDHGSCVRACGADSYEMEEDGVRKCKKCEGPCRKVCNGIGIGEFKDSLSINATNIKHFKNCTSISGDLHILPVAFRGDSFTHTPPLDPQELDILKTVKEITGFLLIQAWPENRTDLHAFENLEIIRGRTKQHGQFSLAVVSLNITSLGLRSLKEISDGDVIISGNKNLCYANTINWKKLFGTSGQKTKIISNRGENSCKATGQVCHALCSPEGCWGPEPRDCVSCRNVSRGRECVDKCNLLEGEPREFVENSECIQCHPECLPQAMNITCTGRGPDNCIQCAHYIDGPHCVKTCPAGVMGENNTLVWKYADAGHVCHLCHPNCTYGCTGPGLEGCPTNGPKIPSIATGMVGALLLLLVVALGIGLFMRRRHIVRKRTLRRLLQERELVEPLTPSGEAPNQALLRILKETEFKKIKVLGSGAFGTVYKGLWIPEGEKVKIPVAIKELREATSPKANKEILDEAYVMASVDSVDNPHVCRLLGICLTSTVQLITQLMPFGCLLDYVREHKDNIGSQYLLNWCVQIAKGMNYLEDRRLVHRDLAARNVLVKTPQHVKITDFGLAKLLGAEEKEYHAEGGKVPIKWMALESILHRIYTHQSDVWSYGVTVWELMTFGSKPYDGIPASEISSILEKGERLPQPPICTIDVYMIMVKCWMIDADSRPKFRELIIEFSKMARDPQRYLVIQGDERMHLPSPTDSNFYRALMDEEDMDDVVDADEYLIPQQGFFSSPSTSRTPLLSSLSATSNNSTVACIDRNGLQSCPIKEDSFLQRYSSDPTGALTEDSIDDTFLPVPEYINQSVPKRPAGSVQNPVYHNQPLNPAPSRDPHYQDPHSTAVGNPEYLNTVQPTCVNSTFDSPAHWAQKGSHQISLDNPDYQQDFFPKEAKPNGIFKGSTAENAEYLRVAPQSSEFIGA
For each of the molecules below, state its GI50.
Give bare numbers, in nM.

In [3]: df
Out[3]:
                                   molecule  observation_type  readout_unit  value_reported
0  COc1c(F)cccc1Nc1c(-c2ccncc2OCC2COC(C)(C)CO2)[nH]c2c1C(=O)NCC2 (single isomer, unassigned) [Example 33]              GI50            nM             102
1  COc1c(Cl)cccc1Nc1c(-c2ccncc2OCCC2COCCO2)[nH]c2c1C(=O)NCC2 (single isomer, unassigned) [Example 26]              GI50            nM            89.9

Now, please, on to the next molecule.
## Input Provide measured GI50 value, entry: COc1c(Cl)cccc1Nc1c(-c2ccncc2OC(C)C2CN(C)CCO2)[nH]c2c1C(=O)NCC2 (single isomer, unassigned) [Example 74]
## Output 51.1

###

For each of the compounds below, state its GI50.
molecular target: Ba/F3-EGFR-WT cells (Homo sapiens, UniProt P00533); assay: Ba/F3 cell survival assay (Cell Titer-Glo), WT EGFR; format: cell-based; conditions: without IL-3, with 10 ng/mL EGF, 48 h; read-out: BA/F3 (wild type) IC50
Answers are plain numbers, in µM.

Consider the worked cases shown below.
In [3]: df
Out[3]:
                                   compound  value_reported
0  Cc1c(F)cccc1Nc1c(-c2ccncc2OCC2CN(C)CCO2)[nH]c2c1C(=O)NCC2 (centres unmarked) [Example 62]           0.697
1  COc1c(Cl)cccc1Nc1c(-c2ccncc2OCCC2COCCO2)[nH]c2c1C(=O)NCC2 (centres unmarked) [Example 24]           0.444

Please state, for each entry, its recorded GI50.
1. COc1c(F)cccc1Nc1c(-c2ccncc2OCC2CN(C)CCO2)[nH]c2c1C(=O)NCC2 (single isomer, unassigned) [Example 13]
2. COc1c(F)cccc1Nc1c(-c2ccncc2OCC2COCCO2)[nH]c2c1C(=O)NCC2 (single isomer, unassigned) [Example 6]
3. COc1c(F)cccc1Nc1c(-c2ccncc2OC[C@@H]2CN(CC(F)(F)F)CCO2)[nH]c2c1C(=O)NCC2

## Output
[1.52, 0.785, 0.648]

Please state, for each entry, its recorded GI50.
1. COc1c(Cl)cccc1Nc1c(-c2ccncc2O[C@@H](C)C2COCCO2)[nH]c2c1C(=O)NCC2 (mixture of isomers) [Example 57]
2. O=C1NCCc2[nH]c(-c3ccncc3OCC3COCCO3)c(Nc3cccc(Cl)c3Cl)c21 (single isomer, unassigned) [Example 8]
3. COc1c(Cl)cccc1Nc1c(-c2ccncc2OC(C)C2CN(C)CCO2)[nH]c2c1C(=O)NCC2 (single isomer, unassigned) [Example 73]
4. COc1c(Cl)cccc1Nc1c(-c2ccncc2OCCC2COCCO2)[nH]c2c1C(=O)NCC2 (single isomer, unassigned) [Example 25]
5. Cc1c(F)cccc1Nc1c(-c2ccncc2OCC2COCCO2)[nH]c2c1C(=O)NCC2 (centres unmarked) [Example 47]
6. COc1c(Cl)cc(F)cc1Nc1c(-c2ccncc2OC[C@@H]2CN(C)CCO2)[nH]c2c1C(=O)NCC2

## Output
[0.539, 0.121, 1.28, 0.349, 0.715, 0.502]
